# assay protocol: Study 1: single escalating oral dose pharmacokinetics, fed and fasted
# Assay type: in vivo, human
# condition summary: human, plasma, po, 50 mg, 50 mg single oral dose, fed; median; read-out: Tmax
endpoint: Tmax
Hey, just the number and the unit after it is fine.

Ask: If you can, please state the reported Tmax value of CCC(CC)c1cc(C)nc2c(-c3sc(N4CCOCC4)nc3Cl)c(C)nn12 .
Reply: 4 h

----------
# assay protocol: Study 1: single escalating oral dose pharmacokinetics, fed and fasted
# Format: in vivo, human
# condition summary: human, plasma, po, 150 mg, 150 mg single oral dose, fasted; geometric mean; read-out: VZ/F
# Description: Study 1 was the first-in-human study that investigated the safety, tolerability, and PK of single-escalating doses of Compound 1, given orally, to healthy adult subjects. […] The data from this study were used for the selection of doses for Study 2. […] PK parameters AUC0-∞ and Cmax were analyzed separately for dose proportionality for Compound 1 from 50 to 800 mg when administered in the fed state. […]
endpoint: Vd/F (L)
Give bare numbers, in L.

Ask: If you can, please state the reported Vd/F value of CCC(CC)c1cc(C)nc2c(-c3sc(N4CCOCC4)nc3Cl)c(C)nn12 [Compound 1] .
Reply: 25100
